These data points were gathered from the supplement of paper PMC11061612.

Below is a list of entries, each paired with its recorded Bliss excess value.
# Test system: VMRC-LCD (Lung Adenocarcinoma)
# protocol: Bliss excess, mean over the matrix (fraction); higher = more synergy;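 further: after 72 h of two-drug dosing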
Reply with the value as a number alone.

Challenge: What value of measured Bliss excess is listed for CS(=O)(=O)CCNCc1ccc(-c2ccc3ncnc(Nc4ccc(OCc5cccc(F)c5)c(Cl)c4)c3c2)o1 [Lapatinib] + C[C@@H](Oc1cc(-c2cnn(C3CCNCC3)c2)cnc1N)c1c(Cl)ccc(F)c1Cl [Crizotinib] (first compound max 10 µM, 7x7, partner max 10 µM) ?
Response given: -0.0246

Field: next compound
Challenge: What value of measured Bliss excess is listed for C=CCn1c(=O)c2cnc(Nc3ccc(N4CCN(C)CC4)cc3)nc2n1-c1cccc(C(C)(C)O)n1 [AZD1775] + Nc1ccn([C@@H]2O[C@H](CO)[C@@H](O)C2(F)F)c(=O)n1 [Gemcitabine] (first compound max 1 µM, partner max 0.3 µM) ?
Response given: -0.0497

----------
# Test system: GI-1 (Glioblastoma)
# protocol: Bliss excess, mean over the matrix (fraction); higher = more synergy
endpointLabel: Bliss excess
Reply with the value as a number alone.

Observe how each entry below is paired with its result.
Challenge: What value of measured Bliss excess is listed for CCN(CCO)CCCOc1ccc2c(Nc3cc(CC(=O)Nc4cccc(F)c4)[nH]n3)ncnc2c1 [AZD2811] + O=C(c1cc(Cc2n[nH]c(=O)c3ccccc23)ccc1F)N1CCN(C(=O)C2CC2)CC1 [Olaparib] (first compound max 1 µM, 7x7, partner max 10 µM) ?
Response given: 0.0685

Challenge: What value of measured Bliss excess is listed for Cn1cnc2c(F)c(Nc3ccc(Br)cc3Cl)c(C(=O)NOCCO)cc21 [Selumetinib] + C[C@@H]1COCCN1C2=NC(=NC(=C2)C3(CC3)[S@](=N)(=O)C)C4=C5C=CNC5=NC=C4 [AZD6738] (first compound max 10 µM, 7x7, partner max 10 µM) ?
Response given: -0.0338

Challenge: What value of measured Bliss excess is listed for COc1nnc2ccc(N3CCC(c4ccc(OCCN5CCN(C)C(=O)[C@H]5C)cc4)CC3)nn12 [AZD5153] + CC1(C)CCC(CN2CCN(c3ccc(C(=O)NS(=O)(=O)c4ccc(NCC5CCOCC5)c([N+](=O)[O-])c4)c(Oc4cnc5[nH]ccc5c4)c3)CC2)=C(c2ccc(Cl)cc2)C1 [Venetoclax] (first compound max 1 µM, 7x7, partner max 1 µM) ?
Response given: 0.0247

More entries:
Challenge: What value of measured Bliss excess is listed for Cc1c2c(nn1C)CSCc1cc(n(C)n1)CSc1cc(c3ccccc3c1)OCCCc1c(C(=O)O)n(C)c3c-2c(Cl)ccc13 [AZD5991] + C[C@@H]1COCCN1C2=NC(=NC(=C2)C3(CC3)[S@](=N)(=O)C)C4=C5C=CNC5=NC=C4 [AZD6738] (first compound max 1 µM, 7x7, partner max 10 µM) ?
Response given: -0.0238

Challenge: What value of measured Bliss excess is listed for Cc1cc2ncnn2cc1Nc1ncc2c(n1)n(C1CCOCC1)c(=O)n2C [AZD7648] + CCN(CCO)CCCOc1ccc2c(Nc3cc(CC(=O)Nc4cccc(F)c4)[nH]n3)ncnc2c1 [AZD2811] (first compound max 10 µM, 7x7, partner max 1 µM) ?
Response given: 0.043

Challenge: What value of measured Bliss excess is listed for CC(=O)Nc1cccc(-n2c(=O)n(C3CC3)c(=O)c3c(Nc4ccc(I)cc4F)n(C)c(=O)c(C)c32)c1 [Trametinib] + Cc1nc(-c2cn3c(n2)-c2ccc(-c4cnn(C(C)(C)C(N)=O)c4)cc2OCC3)n(C(C)C)n1 [Taselisib] (first compound max 1 µM, 7x7, partner max 10 µM) ?
Response given: 0.0885

Challenge: What value of measured Bliss excess is listed for CC1(C)CCC(CN2CCN(c3ccc(C(=O)NS(=O)(=O)c4ccc(NCC5CCOCC5)c([N+](=O)[O-])c4)c(Oc4cnc5[nH]ccc5c4)c3)CC2)=C(c2ccc(Cl)cc2)C1 [Venetoclax] + Cc1cc2ncnn2cc1Nc1ncc2c(n1)n(C1CCOCC1)c(=O)n2C [AZD7648] (first compound max 1 µM, 7x7, partner max 10 µM) ?
Response given: 0.0369

Challenge: What value of measured Bliss excess is listed for NC1(C(=O)N[C@@H](CCO)c2ccc(Cl)cc2)CCN(c2ncnc3[nH]ccc23)CC1 [Capivasertib] + C[C@@H]1COCCN1C2=NC(=NC(=C2)C3(CC3)[S@](=N)(=O)C)C4=C5C=CNC5=NC=C4 [AZD6738] (first compound max 10 µM, 7x7, partner max 10 µM) ?
Response given: -0.0606

Challenge: What value of measured Bliss excess is listed for CN(C)CCCOc1ccc(-c2ccc3ncc4c(c3c2)n(C2CCOCC2)c(=O)n4C)cn1 [AZD0156] + C[C@@H]1COCCN1C2=NC(=NC(=C2)C3(CC3)[S@](=N)(=O)C)C4=C5C=CNC5=NC=C4 [AZD6738] (first compound max 1 µM, 7x7, partner max 10 µM) ?
Response given: -0.0234
